details: in methanol, 323.15 K
property-label: solubility (mole fraction)

>>> observed_result("c1cnc2[nH]ccc2c1")
0.372
